From: the RNAGym collection of RNA variant scans (doi:10.1073/pnas.2313332121)

B1: TPR t1 (parent)
chain: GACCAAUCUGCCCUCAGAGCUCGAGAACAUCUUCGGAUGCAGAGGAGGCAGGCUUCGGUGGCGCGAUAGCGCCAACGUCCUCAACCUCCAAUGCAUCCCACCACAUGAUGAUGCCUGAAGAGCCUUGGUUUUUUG

variants of: B1; assay: polymerase ribozyme fitness, log enrichment relative to wild type (log ratio); higher = more active; in vitro selection for triplet polymerase activity
Reported values of polymerase ribozyme fitness (log ratio) for individual entries
Lab note: write the figure by itself, no unit.

Consider the reported polymerase ribozyme fitness (log ratio) for these variants:
G65U C124A    -4.07
G47U C56G    -3.09
C49U U78C    -1

// polymerase ribozyme fitness (log ratio) value for C20U A50G : -1.33

For record C53U G107U the listed polymerase ribozyme fitness (log ratio) is -4.06

Recorded result, G17A G48U G57C G60A , polymerase ribozyme fitness (log ratio): -2.98

In plain terms, C11U G44A C79U A119U has a documented polymerase ribozyme fitness (log ratio) of -1.69

Item: U33G C70U U78G | polymerase ribozyme fitness (log ratio): -6.53

Lookup result for G17A C20G ; measured polymerase ribozyme fitness (log ratio): -4.82

The variant identified as C3U C102U G117U registered its polymerase ribozyme fitness (log ratio) at -4.61

Reported polymerase ribozyme fitness (log ratio) for C4A G127A was -1.82

According to the records, this variant G42C U133G displays polymerase ribozyme fitness (log ratio) of -1.65

variant A37G A43U G52A G57U C98U , polymerase ribozyme fitness (log ratio) observed: -5.9

Form: variant = A2G U9G U21C G128A ; polymerase ribozyme fitness (log ratio) = -4.35

polymerase ribozyme fitness (log ratio) recorded for this variant, C15U C62U U112G , is -0.275

What the record says about C13G A41U C97U : polymerase ribozyme fitness (log ratio) is -3.81

Lab book: polymerase ribozyme fitness (log ratio) of G69A U130A U133G noted as -2.25

# variant C12U U33G G69U C99A C115A U125C ; its polymerase ribozyme fitness (log ratio) = -6.8

The variant identified as C11U U78C U106G registered its polymerase ribozyme fitness (log ratio) at -2.03

Memo: C85G C86A , reported polymerase ribozyme fitness (log ratio): -1.69
